# System: C. reinhardtii CC-1928
# Assay text: Effect of copper on activity of hydrazones: in vitro growth inhibition of C. reinhardtii in TAP Cu minus / TAP Cu plus medium (Example 10)
# Type: cell-based, Chlamydomonas reinhardtii
# Test context: Chlamydomonas reinhardtii; test compound 1 μg/mL; TAP Cu minus medium; 48 h; read-out: % Inhn. Minus Copper Observed
Measurement type: inhibition of growth at 1 µg/mL (%)
Return type: number; implicit unit %.

Consider the reported inhibition of growth at 1 µg/mL for these compounds:
Compound | inhibition of growth at 1 µg/mL [%]
O=C(N/N=C/c1cc(Cl)cc(Cl)c1O)c1ccc2ccccc2c1 [Compound 10] | 24
Cc1cccc(C(=O)N/N=C/c2c(Cl)ccc(Cl)c2O)c1 [Compound 42] | 10
COc1cc(Br)cc(/C=N/NC(=O)c2cccc(Br)c2)c1O [Compound 19] | 12
O=C(N/N=C/c1cc(C(F)(F)F)cc(Cl)c1O)c1cccc(F)c1 [Compound 28] | 12
O=C(N/N=C/c1ccc(Cl)c(Cl)c1O)c1ccccc1 [Compound 21] | 6

So what does the record say about inhibition of growth at 1 µg/mL for O=C(N/N=C/c1ccc(Cl)c(Cl)c1O)c1cccc(F)c1 [Compound 39] ? 8

So what does the record say about inhibition of growth at 1 µg/mL for O=C(N/N=C/c1cccc(Cl)c1O)c1ccc([N+](=O)[O-])cc1 [Compound 53] ? 8

So what does the record say about inhibition of growth at 1 µg/mL for Cc1ccc(C(=O)N/N=C/c2cc(C(F)(F)F)cc(Cl)c2O)c(O)c1 [Compound 31] ? -1

So what does the record say about inhibition of growth at 1 µg/mL for O=C(N/N=C/c1cccc(C(F)(F)F)c1O)c1cccc(F)c1 [Compound 34] ? 8

So what does the record say about inhibition of growth at 1 µg/mL for O=C(N/N=C/c1cc(C(F)(F)F)cc(Cl)c1O)c1ccccc1O [Compound 30] ? 29

So what does the record say about inhibition of growth at 1 µg/mL for Cc1ccc(C(=O)N/N=C/c2ccc(Cl)c(Cl)c2O)c(O)c1 [Compound 41] ? 28

So what does the record say about inhibition of growth at 1 µg/mL for C/C(=N\NC(=O)c1ccc(C)cc1)c1cc(Cl)cc(Cl)c1O [Compound 26] ? 5

So what does the record say about inhibition of growth at 1 µg/mL for O=C(N/N=C/c1cc(Cl)cc(Cl)c1O)c1cccc(C(F)(F)F)c1 [Compound 22] ? -14

So what does the record say about inhibition of growth at 1 µg/mL for Cc1cccc(C(=O)N/N=C/c2cccc(Cl)c2O)c1 [Compound 50] ? 6

So what does the record say about inhibition of growth at 1 µg/mL for O=C(N/N=C/c1cc(Cl)cc(Br)c1O)c1ccc(Cl)cc1 [Compound 15] ? 11

So what does the record say about inhibition of growth at 1 µg/mL for O=C(N/N=C/c1c(Cl)ccc(Cl)c1O)c1ccccc1O [Compound 46] ? 0

So what does the record say about inhibition of growth at 1 µg/mL for O=C(N/N=C/c1cc(Cl)cc(C(F)(F)F)c1O)c1ccc(Cl)cc1 [Compound 66] ? -4

So what does the record say about inhibition of growth at 1 µg/mL for C/C(=N\NC(=O)c1ccccc1)c1cc(Cl)cc(Cl)c1O [Compound 6] ? 13

So what does the record say about inhibition of growth at 1 µg/mL for O=C(N/N=C/c1cc(Cl)cc(C(F)(F)F)c1O)c1cccc(Cl)c1 [Compound 47] ? -5

So what does the record say about inhibition of growth at 1 µg/mL for O=C(N/N=C/c1c(Cl)ccc(Cl)c1O)c1ccc(Cl)cc1 [Compound 45] ? 9

So what does the record say about inhibition of growth at 1 µg/mL for C/C(=N\NC(=O)c1cccc(Cl)c1)c1cc(Cl)cc(Cl)c1O [Compound 65] ? -5

So what does the record say about inhibition of growth at 1 µg/mL for O=C(N/N=C/c1cc(Cl)cc(Cl)c1O)c1ccc(Br)cc1 [Compound 9] ? 7

So what does the record say about inhibition of growth at 1 µg/mL for O=C(N/N=C/c1cccc(Cl)c1O)c1ccc(Cl)cc1 [Compound 52] ? -4
